Hello, the source for this data is the EternaBench riboswitch data, in case you need it.

# key: entry, value: apparent Kd
- Tested on: MS2 coat protein
- Assay Comment: apparent Kd, MS2 coat protein; higher = weaker binding; RNA-MaP array
- Condition Context: designed as: OFF switch for flavin mononucleotide; no ligand
Measurement Label: apparent Kd (nM)

                               item_sequence  experimental_system  measurement_label  unit  quantitative_readout
 0  UAUUAGUUAGAGAAGGUCCUUAGGCCGCGUAAGGAAGGAUAUCUGCAUCACGGGCCUCUGGCAACAUGAGGAUCACCCAUGUGG     MS2 coat protein        apparent Kd    nM                  96.8
 1  CUCGUUUAAGAGGAUAUUUCGUCCGCUCUCGGGAAAGAAGGCUUGACAUGAGGAUCACCCAUGUAUACGUUGGA     MS2 coat protein        apparent Kd    nM                  9.46
 2  GGUGAUUUCCGACGUUUACAUGAGGAUCACCCAUGUAGGUAGAAGGAUAUGUGUAAAAUUGAUAAACAGAAGGUCUUCCGAAUA     MS2 coat protein        apparent Kd    nM                  12.2
 3  GUAGAGUCAGGAUAUGUCAACUGCUCUGUAAAGCUUGGUCGACAGAAGGGACAUGAGGAUCACCCAUGUGAAGG     MS2 coat protein        apparent Kd    nM                  34.1
 4  GUGGGCUAGGAGAAGGACGAUCGAAGCCAUAUCGUAGGAUAUCCAUUAAGAUCCCGGACAUGAGGAUCACCCAUGUGGUGAUAG     MS2 coat protein        apparent Kd    nM                   676
 5  CCAAAGUAAGGAUAUCGAAGAACCACAACCGACGGAACGAACGAGAAGGUACAUGAGGAUCACCCAUGUGAUAG     MS2 coat protein        apparent Kd    nM                  11.6
 6  UAUACUACUGAGGAUAUCCAAUCCCAGAAACAAGGAGAAGGCAGUACAUGAGGAUCACCCAUGUUCCUCGACAU     MS2 coat protein        apparent Kd    nM                  43.1
 7  ACUCAUGCAAAGGAUAUAACAGUUACAGACUGAUUAGAAGGUUGGACAUGAGGAUCACCCAUGUACGACGCGGU     MS2 coat protein        apparent Kd    nM                  9.13
 8  AAUCAACUUAGAGGAUAUAAGCUUAAAAUAGGGUUAGAAGGCUAUGGUACUAAUGAUCCGUCAACAUGAGGAUCACCCAUGUAG     MS2 coat protein        apparent Kd    nM                    45
 9  AAGUCGCAAGGAUAUACAGUAAGGGUUCGGAUGGGAAGCUUACAUGAGGAUCACCCAUGUAGAAGGUGCAUUCA     MS2 coat protein        apparent Kd    nM                  26.9
10  UCUCUUAAAGCAGGAUAUGAAAUCCACCAGGAAUCAGAAGGGCUCAACGUUACAUGAGGAUCACCCAUGUCCCUUAUGACAAUA     MS2 coat protein        apparent Kd    nM                  7.83
11  AACAGAAGACAGGAUAUUACUUAACCAGUAUUGUAAGAAGGGUCGACAUGAGGAUCACCCAUGUGAUCAUACUG     MS2 coat protein        apparent Kd    nM                  48.8
